DETAILS: 298.15 K; 101 kPa; Liquid
EXPERIMENTAL_ENDPOINT: viscosity (mPa·s)
// return numeric value only (unit: mPa·s, not printed)

Completed entries (count: 3):
COMPOUND: CCCCCCn1cc[n+](C)c1.F[B-](F)(F)F [1-hexyl-3-methylimidazolium tetrafluoroborate]
QUANTITATIVE_RESULT: 190.9
--
COMPOUND: CCCCn1cc[n+](C)c1.F[B-](F)(F)F [1-butyl-3-methylimidazolium tetrafluoroborate]
QUANTITATIVE_RESULT: 99.2
--
COMPOUND: O
QUANTITATIVE_RESULT: 0.89

Could you now look at the following compound, please?
What measured viscosity goes with CCn1cc[n+](C)c1.F[B-](F)(F)F [1-ethyl-3-methylimidazolium tetrafluoroborate] ?
36.9

----------
Parameter: viscosity. Scope: all listed entries.
DETAILS: 288.15 K; 101 kPa; Liquid
Reply numerically in mPa·s, unit not repeated.

Illustrative cases are given below, each with its answer.
MOLECULE: CCn1cc[n+](C)c1.F[B-](F)(F)F [1-ethyl-3-methylimidazolium tetrafluoroborate]
viscosity / mPa·s: 55.5
//
MOLECULE: CCCCCCn1cc[n+](C)c1.F[B-](F)(F)F [1-hexyl-3-methylimidazolium tetrafluoroborate]
viscosity / mPa·s: 357.5
//
MOLECULE: CCCCn1cc[n+](C)c1.F[B-](F)(F)F [1-butyl-3-methylimidazolium tetrafluoroborate]
viscosity / mPa·s: 173.5

Now turn to the next molecule.
# get_value(readout='viscosity', item= O )
1.137

----------
DETAILS: 318.15 K; 101 kPa; Liquid
± gives the expanded uncertainty stated by the source.
EXPERIMENTAL_ENDPOINT: viscosity

Below, 3 compounds whose answers are already recorded.
COMPOUND: CCCCCCn1cc[n+](C)c1.F[B-](F)(F)F [1-hexyl-3-methylimidazolium tetrafluoroborate]
viscosity: 68.5 ± 4.7 mPa·s

COMPOUND: CCCCn1cc[n+](C)c1.F[B-](F)(F)F [1-butyl-3-methylimidazolium tetrafluoroborate]
viscosity: 40.4 ± 2.1 mPa·s

COMPOUND: O
viscosity: 0.597 ± 0.092 mPa·s

Let us examine a further case.
# get_value(readout='viscosity', item= CCn1cc[n+](C)c1.F[B-](F)(F)F [1-ethyl-3-methylimidazolium tetrafluoroborate] )
19.17 ± 1 mPa·s

All values here come from the NIST ThermoML archive (doi:10.1021/je900600c).
